system: PyIESI-1 RRM domain (Plasmodium yoelii PY17X_0911200 aa 795-956, GST fusion); experiment: RBNS R-value (6-mer enrichment in protein-bound RNA vs input library) (ratio); higher = stronger binding preference; the methods of the paper give 50 / 100 / 500 nM protein instead; conditions: protein concentration: 1000 nM
Whole data set: some 4,100 sequences, median “RBNS R-value (6-mer enrichment in protein-bound RNA vs input library)” near 0.96, cut for the highest 2% near 2.4. The sample holds the highest values, similar sequences and a random draw of the others, so the mix is not that of the screen.
Please note: true applies when RBNS R-value is 1 or greater, and false applies otherwise.

Does the sequence GAUUCA have recorded RBNS R-value that is 1 or more?
true

Does the sequence GUCAAC have recorded RBNS R-value that is 1 or more?
false

Does AUUUGU have a reported RBNS R-value of at least 1?
true

State whether the measured RBNS R-value reaches 1, counting equality as reaching it, for UUUUGC
true

Does RBNS R-value meet or surpass 1 for GCGCAG ?
true

Kindly determine if RBNS R-value recorded for AGAUUA is above or exactly 1.
true

Hi, just wondering whether GUUUGG shows RBNS R-value of 1 or higher.
false

Check this sequence for RBNS R-value at or above 1: AUUUAC
false

Kindly determine if RBNS R-value recorded for GAUUCU is above or exactly 1.
true

hey, is RBNS R-value for this one >= 1? GGGCAC
true

State whether the measured RBNS R-value reaches 1, counting equality as reaching it, for CAUGGC
true

Quick check: does UGAUUA have RBNS R-value greater than or equal to 1?
true

Quick check: does AAUGGG have RBNS R-value greater than or equal to 1?
true

Textbook exercise: given the entry GAUUCG , state whether its RBNS R-value is greater than or equal to 1.
true

Is reported RBNS R-value greater than or equal to 1 here: AUGGGA
true

Does the sequence UACAGC have recorded RBNS R-value that is 1 or more?
false

Kindly determine if RBNS R-value recorded for GACAAC is above or exactly 1.
true

// inclusive: RBNS R-value at least 1? input: AAUUCC
true

Quick check, RBNS R-value >= 1? GAUAGC
true

Form field: RBNS R-value at least 1? Entry: AUUUGA
true

RBNS R-value >= 1 for GAUAGU ?
true

Reported RBNS R-value reaches at least 1 for AAACAA ?
false

Would you say CGCAAG shows RBNS R-value at minimum 1?
false

State whether the measured RBNS R-value reaches 1, counting equality as reaching it, for GUGGCG
false

Can CGUGAA be said to have RBNS R-value at or above 1?
false

Does the reported RBNS R-value for GAUAGA fall at or above the 1 mark?
true

Does UGAUUU have a reported RBNS R-value of at least 1?
true

Is RBNS R-value at least 1? Consider CGAUUU
true

Decide: is the reported value of RBNS R-value for UGCGCU equal to or greater than 1?
true

Reported RBNS R-value at or above 1? AAUUCG
true

Determine whether measured RBNS R-value meets or exceeds 1 for GGUAGU
false

Kindly determine if RBNS R-value recorded for GAUCUA is above or exactly 1.
true

For this sequence, is measured RBNS R-value 1 or higher? UCAGAC
false

Is it the case that GUGUUC has RBNS R-value reaching or exceeding 1?
false

Entry GGUGAG : is its RBNS R-value no less than 1?
false

Exam item: decide whether the reported RBNS R-value for GGUGAU is at least 1.
true

Textbook exercise: given the entry UAUGGC , state whether its RBNS R-value is greater than or equal to 1.
true

Record CAAGGA ; criterion: RBNS R-value no lower than 1. Met?
false

Taken from the supplement of paper PMC13392028.
